- assayOverview: Preliminary zebrafish larvae viability assay
- runConditions: in vivo, other: larvae exposed to the compound at 2–50 µM
metric: viability at 48 h

* COc1ccccc1N1CCN(CC(O)c2cn(S(=O)(=O)c3cccc4ccccc34)c3ccccc23)CC1 (stereo not shown) [PUC-10] | ~85%

====

- assayOverview: MTT cell viability assay
- Assay type: cell-based, human
- runConditions: human, SH-SY5Y neuroblastoma cells
metric: viability at 24 h, 25 µM

* COc1ccccc1N1CCN(CC(O)c2cn(S(=O)(=O)c3cccc4ccccc34)c3ccccc23)CC1 (stereo not shown) | > 90%

====

- targetDesc: human 5-HT6 receptors (Homo sapiens)
- Sequence (P50406 whole entry): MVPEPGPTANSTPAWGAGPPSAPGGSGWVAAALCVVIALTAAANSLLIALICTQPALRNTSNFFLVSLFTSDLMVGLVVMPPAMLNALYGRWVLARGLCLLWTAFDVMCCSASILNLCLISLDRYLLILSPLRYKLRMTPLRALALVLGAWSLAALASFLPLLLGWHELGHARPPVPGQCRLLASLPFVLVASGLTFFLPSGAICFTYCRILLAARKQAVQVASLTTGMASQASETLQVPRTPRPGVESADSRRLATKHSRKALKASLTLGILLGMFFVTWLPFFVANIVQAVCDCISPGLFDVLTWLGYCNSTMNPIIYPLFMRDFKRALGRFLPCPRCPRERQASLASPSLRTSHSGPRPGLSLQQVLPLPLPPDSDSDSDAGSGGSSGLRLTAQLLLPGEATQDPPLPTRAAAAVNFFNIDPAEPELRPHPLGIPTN
metric: Ki (nM)

* COc1ccccc1N1CCN(CC(O)c2nn(S(=O)(=O)c3cccc4ccccc34)c3ccccc23)CC1 (stereo not shown) | 37.5
